Every entry's value here was drawn from ChEMBL document CHEMBL1817664.

For each entry below, report its growth at 25 µM value.
# Test system: A-375
# test-details: Antiproliferative activity against human A375 cells assessed as cell growth at 25 uM after 96 hrs by trypan blue assay
# Format: functional
# assay-conditions: A-375, 96 h, read-out: Activity
Respond with a number, then the unit of measure.

Checklist item: growth at 25 µM tested on A-375, entry CCC(C)Sc1nc(C(CC)c2c(F)cccc2F)cc(=O)[nH]1 (centres undefined) , value?
13%

Checklist item: growth at 25 µM tested on A-375, entry CCC(c1nc(SC2CCCC2)[nH]c(=O)c1C)c1c(F)cccc1F (centres undefined) , value?
5%

Checklist item: growth at 25 µM tested on A-375, entry CCC(c1cc(=O)[nH]c(S)n1)c1c(F)cccc1F (centres undefined) , value?
100%

Checklist item: growth at 25 µM tested on A-375, entry CCC(c1cc(O)nc(SC(C)C)n1)c1c(F)cccc1F (centres undefined) , value?
19%
